Target: human NOX4 (Homo sapiens)
Construct: expressed in transfected cells; membrane fraction used
Sequence (Q9NPH5 1-578): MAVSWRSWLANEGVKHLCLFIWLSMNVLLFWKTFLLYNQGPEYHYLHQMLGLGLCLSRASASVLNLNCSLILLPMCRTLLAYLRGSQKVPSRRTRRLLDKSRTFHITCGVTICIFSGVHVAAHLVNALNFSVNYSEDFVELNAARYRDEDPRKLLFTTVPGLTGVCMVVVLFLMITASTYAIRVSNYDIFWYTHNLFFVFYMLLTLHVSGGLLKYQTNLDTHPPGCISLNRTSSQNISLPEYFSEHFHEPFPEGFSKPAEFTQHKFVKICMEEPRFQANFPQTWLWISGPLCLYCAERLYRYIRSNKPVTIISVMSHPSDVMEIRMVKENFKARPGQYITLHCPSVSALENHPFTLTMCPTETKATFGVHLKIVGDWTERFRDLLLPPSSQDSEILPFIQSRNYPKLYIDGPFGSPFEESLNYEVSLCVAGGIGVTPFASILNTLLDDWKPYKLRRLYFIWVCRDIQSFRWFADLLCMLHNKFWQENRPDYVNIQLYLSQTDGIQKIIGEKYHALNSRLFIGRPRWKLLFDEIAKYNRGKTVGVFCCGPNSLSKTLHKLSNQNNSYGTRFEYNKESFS
Sequence (P13498 1-195 partner): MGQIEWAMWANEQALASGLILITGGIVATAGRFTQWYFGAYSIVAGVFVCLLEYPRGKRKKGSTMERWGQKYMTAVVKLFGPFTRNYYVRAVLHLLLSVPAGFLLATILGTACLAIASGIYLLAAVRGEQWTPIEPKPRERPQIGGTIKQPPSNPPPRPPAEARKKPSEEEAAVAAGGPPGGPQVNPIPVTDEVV
Assay: Cell free membrane based in vitro NOX4 assay: H2O2 production by membranes expressing human NOX4, measured with Amplex Red
Assay type: biochemical
Conditions: 1.0 μM compound, read-out: Percentage inhibition at 1.0 μM
value.kind: inhibition at 1 µM (%)

chemical.string: Cn1nc(CN2CC[C@H](F)C2)c2c(=O)c(O)c(-c3c(F)cccc3F)[nH]c21
assayed.target: human NOX4 (Homo sapiens)
reading.unit: %
inhibition at 1 µM: 97.7

chemical.string: Cc1nn(CCN2CCOCC2)c2[nH]c(-c3c(F)cccc3F)c(O)c(=O)c12
assayed.target: human NOX4 (Homo sapiens)
reading.unit: %
inhibition at 1 µM: 100

chemical.string: O=c1c(O)c(-c2c(F)cccc2F)[nH]c2[nH]nc(C(F)(F)F)c12
assayed.target: human NOX4 (Homo sapiens)
reading.unit: %
inhibition at 1 µM: 86.4

chemical.string: Cn1nc(C(F)F)c2c(=O)c(O)c(-c3c(F)cccc3F)[nH]c21
assayed.target: human NOX4 (Homo sapiens)
reading.unit: %
inhibition at 1 µM: 74.5

chemical.string: Cc1nn(CCN2CCOCC2)c2[nH]c(-c3ccccc3C(F)(F)F)c(O)c(=O)c12
assayed.target: human NOX4 (Homo sapiens)
reading.unit: %
inhibition at 1 µM: 93.5

chemical.string: Cn1nc(Cc2ccccc2)c2c(=O)c(O)c(-c3c(F)cccc3F)[nH]c21
assayed.target: human NOX4 (Homo sapiens)
reading.unit: %
inhibition at 1 µM: 76.7

chemical.string: Cn1nc(C(F)(F)F)c2c(=O)c(O)c(-c3cc(CNC(=O)C(C)(C)C)ccc3F)[nH]c21
assayed.target: human NOX4 (Homo sapiens)
reading.unit: %
inhibition at 1 µM: 71

chemical.string: C[C@@H]1CN(Cc2nn(C)c3[nH]c(-c4c(F)cccc4F)c(O)c(=O)c23)C[C@H](C)O1
assayed.target: human NOX4 (Homo sapiens)
reading.unit: %
inhibition at 1 µM: 100

----------
Target: human NOX4 (Homo sapiens)
Construct: expressed in transfected cells; membrane fraction used
Sequence (Q9NPH5 1-578): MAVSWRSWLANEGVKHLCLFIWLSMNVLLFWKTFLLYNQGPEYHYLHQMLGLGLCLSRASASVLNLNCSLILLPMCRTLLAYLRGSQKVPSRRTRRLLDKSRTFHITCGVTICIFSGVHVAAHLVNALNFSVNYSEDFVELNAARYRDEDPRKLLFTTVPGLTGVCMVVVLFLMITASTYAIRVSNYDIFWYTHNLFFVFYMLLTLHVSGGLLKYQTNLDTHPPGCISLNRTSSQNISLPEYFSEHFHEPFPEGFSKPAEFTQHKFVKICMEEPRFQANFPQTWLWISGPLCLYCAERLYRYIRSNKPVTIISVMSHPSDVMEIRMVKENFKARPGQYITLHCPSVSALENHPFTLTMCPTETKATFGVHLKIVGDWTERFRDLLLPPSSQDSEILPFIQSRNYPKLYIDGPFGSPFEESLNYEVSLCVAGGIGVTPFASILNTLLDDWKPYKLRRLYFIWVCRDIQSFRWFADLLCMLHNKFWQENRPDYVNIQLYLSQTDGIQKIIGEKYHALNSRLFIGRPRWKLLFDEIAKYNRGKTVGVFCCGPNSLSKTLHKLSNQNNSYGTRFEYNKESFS
Sequence (P13498 1-195 partner): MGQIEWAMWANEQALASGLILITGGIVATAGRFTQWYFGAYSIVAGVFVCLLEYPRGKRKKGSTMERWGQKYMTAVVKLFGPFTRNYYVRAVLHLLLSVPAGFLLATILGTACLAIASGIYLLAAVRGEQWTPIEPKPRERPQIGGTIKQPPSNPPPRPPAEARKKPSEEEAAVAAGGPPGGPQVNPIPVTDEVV
Experiment: Cell free membrane based in vitro NOX4 assay: H2O2 production by membranes expressing human NOX4, measured with Amplex Red
Format: biochemical
Conditions: 1.0 μM compound, read-out: Percentage inhibition at 1.0 μM
Experimental: The inhibition of NOX4 activity was measured as inhibition of formation of reactive oxygen species (ROS) from oxygen in cell free assays. […] Protein concentration was determined by Bradford reagent. H202 production by membranes expressing human NOX4 was measured using Amplex Red (Invitrogen) by following a slightly modified version of the manufacturer's instruction manual. […] IC50 value was calculated from concentration response curve by nonlinear regression analysis using GraphPad PRISM software.
value.kind: inhibition at 1 µM (%)

Check out these entries, answers already filled in.
chemical.string: Cn1ncc2c(=O)c(O)c(-c3ccc(Cl)cc3Cl)[nH]c21
inhibition at 1 µM (%): 74
--
chemical.string: O=c1c(O)c(-c2c(F)cccc2F)[nH]c2c1c(C(F)(F)F)nn2C1CCOCC1
inhibition at 1 µM (%): 57.1
--
chemical.string: Cc1nn(-c2ccccn2)c2[nH]c(-c3ccccc3Cl)c(O)c(=O)c12
inhibition at 1 µM (%): 64.1

I: COCCOc1ccc(-c2[nH]c3c(c(C(F)(F)F)nn3C)c(=O)c2O)c(F)c1
II: CCn1nc(C)c2c(=O)c(O)c(-c3ccc(OCCOC)cc3F)[nH]c21
III: Cc1c2c(=O)c(O)c(-c3ccccc3Cl)[nH]c2nn1C
[in] Put these in order: smallest inhibition at 1 µM first, largest last. Give the order by naming the labels one after another as requested.
[out] III, II, I
(III: 41.1%, II: 64.8%, I: 100%)

1: O=c1c(O)c(-c2c(F)cccc2F)[nH]c2c1c(C1CCOCC1)nn2C1CC1
2: NC(=O)c1nsc2c(=O)c(O)c(-c3ccccc3Cl)[nH]c12
[in] Of 1 versus 2 , which is the one with smaller reported inhibition at 1 µM? Indicate your choice by writing its label.
[out] 2
(2: 55.3%, 1: 93.1%)

P: CCc1nn(CCN2CCN(C)CC2)c2[nH]c(-c3cccc(C(F)(F)F)c3F)c(O)c(=O)c12
Q: O=c1c(O)c(-c2ccccc2Cl)[nH]c2sc(C(F)(F)F)nc12
[in] Between the entries labelled P and Q , which has a larger inhibition at 1 µM value on record? Indicate your choice by writing its label.
[out] P
(P: 92.3%, Q: 58.6%)

----------
Biological target: human NOX4 (Homo sapiens, UniProt Q9NPH5)
Construct: expressed in transfected cells; membrane fraction used
Test: Cell free membrane based in vitro NOX4 assay: H2O2 production by membranes expressing human NOX4, measured with Amplex Red
Type: biochemical
Conditions: 1.0 μM compound, read-out: Percentage inhibition at 1.0 μM
value.kind: inhibition at 1 µM (%)

compound: COc1cc(F)c(-c2[nH]c3c(c(C)nn3C)c(=O)c2O)c(F)c1 [Example 67]
assayed.target: human NOX4 (Homo sapiens, UniProt Q9NPH5)
inhibition at 1 µM, %: 87.1
--
compound: CCc1nn(CCN2CCOCC2=O)c2[nH]c(-c3c(F)cccc3F)c(O)c(=O)c12 [Example 168]
assayed.target: human NOX4 (Homo sapiens, UniProt Q9NPH5)
inhibition at 1 µM, %: 94.9
--
compound: Cc1nn(C2CC2)c2[nH]c(-c3cccc(F)c3F)c(O)c(=O)c12 [Example 96]
assayed.target: human NOX4 (Homo sapiens, UniProt Q9NPH5)
inhibition at 1 µM, %: 67.3
--
compound: CC(C)c1nn(C)c2[nH]c(-c3c(F)cccc3F)c(O)c(=O)c12 [Example 91]
assayed.target: human NOX4 (Homo sapiens, UniProt Q9NPH5)
inhibition at 1 µM, %: 98.3
--
compound: Cn1nc(C(F)(F)F)c2c(=O)c(O)c(-c3ccc(-n4ccnc4)cc3)[nH]c21 [Example 54]
assayed.target: human NOX4 (Homo sapiens, UniProt Q9NPH5)
inhibition at 1 µM, %: 92.1

A: Cc1nn(C2CC2)c2[nH]c(-c3c(F)cc(F)cc3F)c(O)c(=O)c12 [Example 94]
B: Cn1nc(N2CCOCC2)c2c(=O)c(O)c(-c3c(F)cccc3F)[nH]c21 [Example 117]
C: CCn1nc(C)c2c(=O)c(O)c(-c3ccc(F)cc3)[nH]c21 [Example 112]
[in] Put these in order: smallest inhibition at 1 µM first, largest last. Give the order by naming the labels one after another as requested.
[out] B, C, A
(B: 6.79%, C: 44.1%, A: 72.5%)
